Tested on: NCI-H460 lung
run_description: NCI-60 one-dose screen, 48 h
setup_conditions: 10 µM unless noted
Experimental: Growth inhibition of the NCI-H460 human Non-Small Cell Lung tumor cell line is measured as a screen for anti-cancer activity. Cells are grown in 96 well plates and exposed to the test compound for 48 hours. Compounds are tested at a single concentration, which is 10^-5 M for most compounds. The reported endpoint is percent growth (GI% or GIPRCNT), where numbers from 0 - 100% represent growth inhibition, and numbers from -100% - 0 represent cell death. […]
Compounds without any hit were thinned out: in the full panel of roughly 83,000, 20% have a hit. Active and inactive are the calls of the source. The calls were made as follows: active = growth percent below 10; inactive = the rest.
Respond using exactly one of the listed classes: active, inactive

Some entries whose results are on file:
[[record]]
compound = "COc1ccc(NS(=O)(=O)N2CCCCC2)cc1"
label = "inactive"

[[record]]
compound = "CSc1nc2nc3c(nc2c(=O)n1C)C(=O)c1ccccc1C3=O"
label = "active"

[[record]]
compound = "Nc1ccn(C2O[C@H](CO)[C@@H](O)[C@@H]2O)c(=O)n1 (stereo not given in full)"
label = "active"

[[record]]
compound = "CC(C)N(Cc1ccccc1)c1c(Cl)ssc1=O"
label = "inactive"

[[record]]
compound = "CCCCCc1c(C)[nH]c(/C=C2\\N=C(c3ccc[nH]3)C=C2OCc2ccccc2)c1C"
label = "active"

[[record]]
compound = "O=C1/C=C/[C@@H](O)[C@@H]2C[C@@H](O)C[C@H]2/C=C/CCC[C@H](CO)O1"
label = "inactive"

[[record]]
compound = "COc1cc(/C=C2\\CN(C)CC3=C2Nc2nc(SC)[nH]c(=O)c2C3c2cc(OC)c(OC)c(OC)c2)cc(OC)c1OC (stereo not given)"
label = "inactive"

[[record]]
compound = "CN(C)c1ccc(-n2nc3ccccc3n2)cc1"
label = "inactive"


Problem: Please share the test call associated with CC(C)Cn1cnc2c(NCn3nc(-c4cc(Cl)cc(Cl)c4Cl)n(/N=C/c4ccc(Cl)cc4)c3=S)nc3ccccc3c21 .
Solution: inactive

Problem: Another compound to look at: COc1ccc(C2=NN(C(C)=O)C(c3c(C)nn(-c4ccccc4)c3N3CCOCC3)C2)cc1 (stereo not given)
Solution: inactive

Problem: Another compound to look at: C=CCN(/C=C/CN(CC=C)CC=C)CC=C
Solution: inactive

Problem: Another compound to look at: CCc1nn2c(-c3ccc(Cl)cc3C)c(-c3cc(OC)c(OC)c(OC)c3)nc2s1
Solution: inactive

Problem: Another compound to look at: COc1cc(/C=C/C(=O)C(C(=O)/C=C/c2ccc(OC(=O)CCNC34CC5CC(CC(C5)C3)C4)c(OC)c2)C(=O)CCNC23CC4CC(CC(C4)C2)C3)ccc1OC(=O)CCNC12CC3CC(CC(C3)C1)C2 (stereo not given)
Solution: active

---

Test system: KM12 colon
run_description: NCI-60 one-dose screen, 48 h (100 = growth as untreated, 0 = no growth, -100 = all killed)
setup_conditions: 10 µM unless noted
The panel holds about 83,000 compounds, 20% with a hit somewhere; the sample as a whole holds those more often.
The entries below come with measured growth values attached.
API: value field is a number in %; no unit string.

Example entries and their recorded answers appear below.
[[record]]
molecule = "CC(=O)c1nn(-c2ccccc2)c(=Nc2ccccc2)cc1C"
system_name = "KM12 colon"
unit_of_measure = "%"
readout_value = 99

[[record]]
molecule = "CCCCc1n(Cc2ccc3ccccc3c2)cc[n+]1Cc1ccc2ccccc2c1"
system_name = "KM12 colon"
unit_of_measure = "%"
readout_value = -82.5

[[record]]
molecule = "Nc1nc(Nc2ccccc2SSc2ccccc2Nc2nc(N)nc(C(Cl)(Cl)Cl)n2)nc(C(Cl)(Cl)Cl)n1"
system_name = "KM12 colon"
unit_of_measure = "%"
readout_value = 43.4


Please look at the following molecule next.
Problem: Tell me the measured growth of COC(=O)[C@H]1[C@H]2C[C@@H]3c4[nH]c5cc(OC)ccc5c4CCN3C[C@H]2C[C@@H](OC(=O)/C=C/c2cc(OC)c(OC)c(OC)c2)[C@@H]1OC , please.
Solution: 40.5

---

Tested on: SW-620 colon
run_description: NCI-60 one-dose screen, 48 h
setup_conditions: 10 µM unless noted
About 83,000 compounds went through this panel and 20% of them were active in at least one assay; those are over-represented in the sample as a whole. The source made the active and inactive calls. How the source made its calls: active means growth percent below 10; inactive means the rest.
Respond using exactly one of the listed classes: active, inactive

Some entries whose results are on file:
[[record]]
compound = "COc1cnc2c(c1)C(=O)c1c-2n(CCCN2CCNCC2)c(=O)c2cc(F)ccc12"
label = "active"

[[record]]
compound = "Oc1ccc(/C=N/Nc2nc3ccccc3s2)c(O)c1"
label = "inactive"

[[record]]
compound = "O=C(O)CCC(=O)OC[C@@H](NC(=O)C(Cl)Cl)[C@H](O)c1ccc([N+](=O)[O-])cc1"
label = "inactive"

[[record]]
compound = "O=CN1N=C(c2ccc(Cl)cc2)CC1c1cccc(Nc2ccnc3cc(Cl)ccc23)c1 (stereo not given)"
label = "inactive"

[[record]]
compound = "Clc1ccc2nc(CI)c(CI)nc2c1"
label = "inactive"


Let's switch to this compound now.
Problem: Please share the test call associated with O=C(N/N=C/c1cccc(O)c1)c1ccc(C(F)(F)F)nc1Nc1cccc(C(F)(F)F)c1 .
Solution: active

---

System: NCI-H522 lung
run_description: NCI-60 one-dose screen, 48 h (100 = growth as untreated, 0 = no growth, -100 = all killed)
setup_conditions: 10 µM
This is part of a sample that, as a whole, favours compounds with a hit. Of some 83,000 tested, about 20% had one in any assay.
Please respond with TRUE when measured growth is strictly beneath 90%, and with FALSE in all other cases.

Some entries whose results are on file:
[[record]]
compound = "COc1ccc(CNC(=O)c2c(C)n([O-])c3ccc(OC)cc3[n+]2=O)cc1"
label = "TRUE"

[[record]]
compound = "C[C@]12CCC(=O)C=C1CCC1C2[C@@H](O)C[C@@]2(C)C1CC[C@]2(O)C(=O)COC(=O)CCC(=O)O (stereo not given in full)"
label = "FALSE"

[[record]]
compound = "C/C=C(/C(=C/C)c1ccc(O)cc1)c1ccc(O)cc1"
label = "TRUE"


Let's switch to this compound now.
Problem: Decide: growth of NS(=O)(=O)c1cc(C2(O)NC(=O)c3ccccc32)ccc1Cl (stereo not given) strictly below 90%?
Solution: FALSE

---

System: SK-MEL-28 melanoma
run_description: NCI-60 one-dose screen, 48 h
setup_conditions: 10 µM unless noted
Protocol: Growth inhibition of the SK-MEL-28 human tumor cell line is measured as a screen for anti-cancer activity. Cells are grown in 96 well plates and exposed to the test compound for 48 hours. Compounds are tested at a single concentration, which is 10^-5 M for most compounds. The reported endpoint is percent growth (GI% or GIPRCNT), where numbers from 0 - 100% represent growth inhibition, and numbers from -100% - 0 represent cell death. For example, a value of 40 represents 60% growth inhibition. […]
The panel holds about 83,000 compounds, 20% with a hit somewhere; the sample as a whole holds those more often. Active and inactive are the calls of the source. The calls were made as follows: active = growth percent below 10; inactive = the rest.
Respond using exactly one of the listed classes: active, inactive

Some entries whose results are on file:
[[record]]
molecule = "c1ccc(-c2n(Cc3ccc4ccccc4c3)cc[n+]2Cc2ccc3ccccc3c2)cc1"
label = "active"

[[record]]
molecule = "COc1cc(C(=O)c2cc3c(cc2C)OCO3)cc(OC)c1OC"
label = "inactive"

[[record]]
molecule = "O=C(NCCCl)NCCN1c2nc3ccccc3cc2Sc2cc3ccccc3nc21"
label = "inactive"

[[record]]
molecule = "COc1cccc(/C=N/Nc2nc3ccccc3s2)c1OC"
label = "inactive"

[[record]]
molecule = "CCN(CC)CCOCC[C@H]1CC[C@H]2[C@@H]3[C@H](C)Cc4cc(OS(N)(=O)=O)ccc4[C@H]3CC[C@]12C"
label = "active"


Problem: Please share the test call associated with Cn1cnc([N+](=O)[O-])c1Sc1nc(N)nc2nc[nH]c12 .
Solution: inactive

Problem: Another molecule to look at: Cc1ccc(OCC(=O)Nc2ccc(Oc3ccccc3)cc2)c([N+](=O)[O-])n1
Solution: inactive

Problem: Another molecule to look at: CCOC(=O)C(Br)=P(c1ccccc1)(c1ccccc1)c1ccccc1
Solution: inactive

Problem: Another molecule to look at: COc1ccc(-c2cnc(SCC(=O)Nc3ccc(-c4nc5ccccc5s4)cc3)n2-c2ccc(OC)cc2)cc1
Solution: inactive

Problem: Another molecule to look at: O=C(Nc1ccccc1)P(=O)(O)c1ccccc1
Solution: inactive

Problem: Another molecule to look at: COc1ccc(/C=C2/SC(=Nc3c(C)nn(-c4ccccc4)c3N)NC2=O)cc1
Solution: inactive

---

The entries below come with measured growth values attached.
System: SF-268 CNS
run_description: NCI-60 one-dose screen, 48 h (100 = growth as untreated, 0 = no growth, -100 = all killed)
setup_conditions: 10 µM unless noted
About 83,000 compounds went through this panel and 20% of them were active in at least one assay; those are over-represented in the sample as a whole. Active and inactive are the calls of the source. How the source made its calls: active means growth percent below 10; inactive means the rest.

Example entries and their recorded answers appear below.
[[record]]
compound = "COc1ccc2nc(-c3ccc(Cl)cc3)cc(-c3nnc(SCC(=O)Nc4ccc(C(C)=O)cc4)n3-c3ccccc3)c2c1"
endpoint_label = "growth"
readout_value = "87.3% (inactive)"

[[record]]
compound = "Cc1[nH]ccc2cc3nc4ccccc4c3cc12"
endpoint_label = "growth"
readout_value = "40% (inactive)"


Problem: Tell me the measured growth of O=C1c2cc3c(cc2-c2c1c1ccc(Cl)cc1c(=O)n2CCCNCCO)OCO3 , please.
Solution: -76.7% (active)

Problem: Another compound to look at: OCCN1CCN(CCCN2c3ccccc3Sc3ccc(C(F)(F)F)cc32)CC1
Solution: 41% (inactive)

Problem: Another compound to look at: Cc1ccc(C(=O)Cc2ccccc2)c(O)c1
Solution: 97.6% (inactive)

Problem: Another compound to look at: COc1ccc2ncccc2c1Cc1c(OC)ccc2ncccc12
Solution: 84.2% (inactive)

Problem: Another compound to look at: c1ccc2nc(N/N=C3\CCCCC3C3CCCCC3)ccc2c1 (stereo unspecified)
Solution: 66.8% (inactive)

Problem: Another compound to look at: COc1ccc(-c2cc(-c3cccnc3)nc3sc(C(=O)Nc4ccccc4)c(N)c23)cc1OC
Solution: 69% (inactive)

Problem: Another compound to look at: C[C@H]1c2cccc(O)c2C(O)=C2C(=O)[C@]3(O)C(O)=C(C(N)=O)C(=O)[C@@H](N(C)C)[C@@H]3[C@@H](O)[C@@H]21
Solution: 28.2% (inactive)

Problem: Another compound to look at: Nc1ncnc2c1CN(Cc1ccccc1)CC2
Solution: 105% (inactive)

Problem: Another compound to look at: Oc1c(Cl)cc(Oc2cc(Cl)c(O)c(CN3CCOCC3)c2)cc1CN1CCOCC1
Solution: 87.9% (inactive)
